Molecular target: Keap1-Maltose Binding Protein (MBP tag) (Homo sapiens, UniProt Q14145)
Sequence (Q14145 whole entry): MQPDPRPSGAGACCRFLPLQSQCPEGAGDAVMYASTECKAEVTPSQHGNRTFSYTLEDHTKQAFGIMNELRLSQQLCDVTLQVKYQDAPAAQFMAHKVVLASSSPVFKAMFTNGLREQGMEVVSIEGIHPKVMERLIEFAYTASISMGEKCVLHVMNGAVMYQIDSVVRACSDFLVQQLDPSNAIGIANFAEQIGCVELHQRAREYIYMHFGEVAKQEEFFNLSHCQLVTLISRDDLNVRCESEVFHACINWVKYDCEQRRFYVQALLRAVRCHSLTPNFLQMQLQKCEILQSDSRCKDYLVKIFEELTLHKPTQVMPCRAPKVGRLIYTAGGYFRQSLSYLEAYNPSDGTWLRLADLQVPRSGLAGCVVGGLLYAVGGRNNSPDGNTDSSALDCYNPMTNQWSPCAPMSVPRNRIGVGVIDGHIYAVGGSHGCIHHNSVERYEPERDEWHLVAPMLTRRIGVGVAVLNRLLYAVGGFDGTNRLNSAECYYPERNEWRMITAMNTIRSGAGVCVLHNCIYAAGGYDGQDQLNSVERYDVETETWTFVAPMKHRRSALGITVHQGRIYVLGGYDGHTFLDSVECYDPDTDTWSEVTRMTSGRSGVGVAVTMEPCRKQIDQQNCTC
Test: Nrf2-Keap1 HTRF (TR-FRET) binding assay: displacement of biotinylated ETGE peptide from Keap1-MBP
pIC50: −log10 of the molar value. Starred links: 1 amine or outer side, 2 acyl side, 3 side chain; linkers in the order of their positions; H or OH if unused. Positions of bridges follow the written chain, without caps; N, C: chain ends. Non-standard residues stand in square brackets, D forms with d. Residues, ends and D or L forms follow the SMILES beside them. Trp(2-yl) = O=C([C@H](Cc1c([*:3])[nH]c2ccccc12)N[*:1])[*:2]; mXylylene = c1cc(C[*:1])cc(C[*:2])c1
In this section we review reported pIC50 values for a set of compounds.

[
  {
    "Compound": "CCCCCCCC/C=C\\CCCCCCCC(=O)N[C@H]1C[C@H]2C(=O)N[C@@H](CCC(N)=O)C(=O)N[C@H]3CSCc4ccccc4CSC[C@H](NC(=O)[C@H](CCC(=O)O)NC(=O)CNC(=O)[C@H]([C@@H](C)O)NC(=O)[C@H](CCC(=O)O)NC(=O)[C@@H]4CCCN4C(=O)[C@H](CC(=O)O)NC3=O)C(=O)N[C@@H](CC(C)C)C(=O)N3CCC[C@@H]3C(=O)N2C1 [Example 88]",
    "pIC50": "> 9.00"
  },
  {
    "Compound": "CC(C)C[C@@H]1NC(=O)[C@@H]2CCCN2C(=O)[C@H](CC(C)C)NC(=O)[C@@H]2CSc3[nH]c4ccccc4c3C[C@H](NC(=O)[C@H](CCC(N)=O)NC1=O)C(=O)N[C@@H](CC(=O)O)C(=O)N[C@@H](CCC(=O)O)C(=O)N[C@@H](CCC(=O)O)C(=O)N[C@@H]([C@@H](C)O)C(=O)NCC(=O)N[C@@H](CCC(=O)O)C(=O)N2 [Example 11] (cyclo(CLPLQ[Trp(2-yl)]DEETGE); thioether 1-6)",
    "pIC50": "7.00 to 9.00"
  }
]

Consider the record given below.
-- ask # returns recorded pIC50 (system: Keap1-Maltose Binding Protein (MBP tag) (Homo sapiens, UniProt Q14145)) for CC(C)C[C@@H]1NC(=O)[C@@H]2CCCN2C(=O)[C@H](CC(C)C)NC(=O)[C@@H]2CSCc3cccc(c3)CSC[C@H](NC(=O)[C@H](CCC(N)=O)NC1=O)C(=O)N[C@@H](CC(=O)O)C(=O)N[C@@H](C)C(=O)N[C@@H](CCC(=O)O)C(=O)N[C@@H]([C@@H](C)O)C(=O)NCC(=O)N[C@@H](CCC(=O)O)C(=O)N2 [Example 17] (cyclo(AETGECLPLQCD); linker 6-11 via mXylylene)
-- reply 7.00 to 9.00

---

In this section we review reported IC50 values for a set of compounds.
Target: UniProt Q14145
Assay: Nrf2-Keap1 HTRF (TR-FRET) binding assay: displacement of biotinylated ETGE peptide from Keap1-MBP
Details: HTRF (TR-FRET); displacement of ETGE-biotin from Keap1-MBP; values banded into grades; read-out: Binding (IC50) ETGE-Keap1
Starred links: 1 amine or outer side, 2 acyl side, 3 side chain; linkers in the order of their positions; H or OH if unused. Positions of bridges follow the written chain, without caps; N, C: chain ends. Residues, ends and D or L forms follow the SMILES beside them. *: point of attachment. Pyridine(2,6-diCH2) = c1cc(C[*:1])nc(C[*:2])c1; Stearoyl = CCCCCCCCCCCCCCCCCC(=O)*; βAla = NCCC(=O)O

[
  {
    "Compound": "CCCCCCCCCCCCCCCCCC(=O)NCCC(=O)N[C@@H](CC(C)C)C(=O)N[C@@H](CCC(N)=O)C(=O)N[C@H]1CSCc2cccc(n2)CSC[C@@H](C(=O)N[C@@H](CC(C)C)C(=O)N2CCC[C@H]2C(N)=O)NC(=O)[C@H](CCC(=O)O)NC(=O)CNC(=O)[C@H]([C@@H](C)O)NC(=O)[C@H](CCC(=O)O)NC(=O)[C@@H]2CCCN2C(=O)[C@H](CC(=O)O)NC1=O [Example 62] ({Stearoyl-βAla}-LQCDPETGECLP-NH2; linker 3-10 via Pyridine(2,6-diCH2))",
    "Measurement name": "IC50",
    "Result": "1 to 100 nM"
  }
]

Consider the record given below.
-- ask I am curious: what IC50 value has been reported for CCCCCCCCCCCCCCCCCC(=O)NCCC(=O)N[C@@H](CC(C)C)C(=O)N[C@@H](CC(C)C)C(=O)N[C@H]1CSCC2(COC2)CSC[C@@H](C(=O)N[C@@H](CC(C)C)C(=O)N[C@@H](CC(C)C)C(N)=O)NC(=O)[C@H](CCC(=O)O)NC(=O)CNC(=O)[C@H]([C@@H](C)O)NC(=O)[C@H](CCC(=O)O)NC(=O)[C@@H]2CCCN2C(=O)[C@H](CC(=O)O)NC1=O ?
-- reply < 1 nM

---

Biological target: Keap1-Maltose Binding Protein (MBP tag) (Homo sapiens, UniProt Q14145)
Assay: Nrf2-Keap1 HTRF (TR-FRET) binding assay: displacement of biotinylated ETGE peptide from Keap1-MBP
Conditions: HTRF (TR-FRET); displacement of ETGE-biotin from Keap1-MBP; values banded into grades; read-out: Binding (IC50) ETGE-Keap1
Starred links: 1 amine or outer side, 2 acyl side, 3 side chain; linkers in the order of their positions; H or OH if unused. Positions of bridges follow the written chain, without caps; N, C: chain ends. Residues, ends and D or L forms follow the SMILES beside them. *: point of attachment. mXylylene = c1cc(C[*:1])cc(C[*:2])c1; X2 = c1ccc2cc(C[*:2])c(C[*:1])cc2c1; Stearoyl = CCCCCCCCCCCCCCCCCC(=O)*; βAla = NCCC(=O)O
In this section we review reported IC50 values for a set of compounds.

[
  {
    "Compound": "CCCCCCCCCCCCCCCCCC(=O)NCCC(=O)N[C@@H](CC(C)C)C(=O)N[C@@H](CCC(N)=O)C(=O)N[C@H]1CSCc2cc3ccccc3cc2CSC[C@@H](C(=O)N[C@@H](CC(C)C)C(=O)N2CCC[C@H]2C(=O)O)NC(=O)[C@H](CCC(=O)O)NC(=O)CNC(=O)[C@H]([C@@H](C)O)NC(=O)[C@H](CCC(=O)O)NC(=O)[C@H](C)NC(=O)[C@H](CC(=O)O)NC1=O [Example 38] ({Stearoyl-βAla}-LQCDAETGECLP-OH; linker 3-10 via X2)",
    "IC50": "1 to 100 nM"
  }
]

Consider the record given below.
-- ask I am curious: what IC50 value has been reported for CCCCCCCCCCCCCCCCCC(=O)NCCC(=O)N[C@@H](CC(C)C)C(=O)N[C@@H](CCC(N)=O)C(=O)N[C@H]1CSCc2cccc(c2)CSC[C@@H](C(=O)N[C@@H](CC(C)C)C(=O)N2CCC[C@H]2C(=O)O)NC(=O)[C@H](CCC(=O)O)NC(=O)CNC(=O)[C@H]([C@@H](C)O)NC(=O)[C@H](CCC(=O)O)NC(=O)[C@H](C)NC(=O)[C@H](CC(=O)O)NC1=O [Example 39] ({Stearoyl-βAla}-LQCDAETGECLP-OH; linker 3-10 via mXylylene) ?
-- reply 1 to 100 nM

---

Biological target: Keap1-Maltose Binding Protein (MBP tag) (Homo sapiens, UniProt Q14145)
Assay: Nrf2-Keap1 HTRF (TR-FRET) binding assay: displacement of biotinylated ETGE peptide from Keap1-MBP
Settings: HTRF (TR-FRET); displacement of ETGE-biotin from Keap1-MBP; values banded into grades; read-out: Binding (IC50) ETGE-Keap1
pIC50: −log10 of the molar value. Starred links: 1 amine or outer side, 2 acyl side, 3 side chain; linkers in the order of their positions; H or OH if unused. Positions of bridges follow the written chain, without caps; N, C: chain ends. Non-standard residues stand in square brackets, D forms with d. Residues, ends and D or L forms follow the SMILES beside them. X3 = O=C([C@H](Cc1ccccc1[*:3])N[*:1])[*:2]
Measurement name: pIC50

[
  {
    "Compound": "CC(=O)N[C@H]1Cc2ccccc2SC[C@@H](C(N)=O)NC(=O)[C@H](CCC(=O)O)NC(=O)CNC(=O)[C@H]([C@@H](C)O)NC(=O)[C@H](CCC(=O)O)NC(=O)[C@H](CCC(=O)O)NC(=O)[C@H](CC(=O)O)NC1=O [Example 23] (Ac-[X3]DEETGEC-NH2; thioether 1-8)",
    "Target system": "Keap1-Maltose Binding Protein (MBP tag) (Homo sapiens, UniProt Q14145)",
    "pIC50": "7.00 to 9.00"
  }
]

-- ask I am curious: what pIC50 value has been reported for CCCCCCCCCCCCCCCCCC(=O)N[C@H]1C[C@H]2C(=O)N[C@@H](CCC(N)=O)C(=O)N[C@H]3CSCC4(COC4)CSC[C@H](NC(=O)[C@H](CCC(=O)O)NC(=O)CNC(=O)[C@H]([C@@H](C)O)NC(=O)[C@H](CCC(=O)O)NC(=O)[C@@H]4CSCN4C(=O)[C@H](CC(=O)O)NC3=O)C(=O)N[C@@H](CC(C)C)C(=O)N3CCC[C@@H]3C(=O)N2C1 [Example 97] ?
-- reply > 9.00
